test: protease stability score; higher = more stable; yeast display proteolysis, trypsin and chymotrypsin;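 also: log10 excess protease needed over predicted unfolded state with 0 meaning unfolded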
Measured Property: protease stability score

Solved cases below.
DEDELAQKLVEQMVKAIRHGDPHDFVKMIDKNATMDVGDKRLHGREKLEEFIKKLVDKYDHLDAKVSHMDLDNGQIKVNIEIHLVKNGKTDHITLDARADVTNGDARFVDFQWR
1.47
DKEALDEIEKAARENDWEKLAKMADPNVTATIGNYRVHGRSQFEKWARRVRQEVDHIEVKSIDVHGEKARVNYVIVFNGHNVTAQVQIEAHNGHITYMEVDYTDEDQVRHVKDMLS
1.6

The record that follows has no protease stability score shown yet.
Input: Please report the measured protease stability score for DEEHQKEVLEHMTTNDPQFLRDLADEDVRVNVGDKEVKGREEFRRVLEHELRRIDRIQVKRVHVEGEKFKIDRKVTFDGKTLDYEVNFTIHNGRLKQMRVQARSEDLEEKMKELHG
Output: 0.36
